# TESTED TARGET: T1, HLA-A2 / homologous peptide DOLPP1 complex on T2 cells (human)
# T1 construct: whole, on cells; also called T2 cells supplemented with homologous peptide DOLPP1
# PROTOCOL DESCRIPTION: flow cytometry on peptide-pulsed T2 cells, scFv 100 nM;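 note: scFv binding read as gMFI and normalized to the level of HLA/peptide complex displayed on T2 cells, with homologous 9-mer peptides used to probe specificity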
The binders listed here are annotated with their standardized gMFI.
Could you keep your reply to the number by itself?

Worked cases, standardized gMFI given:
BINDER | standardized gMFI
NYA-2061 (scFv, also called NYA-2061 tag adduct) scFv: GEVQLVESGGGLVQPGGSLRLSCAASGFSIRSYDIHWVRQAPGKGLEWVATISYDGSQKYYADSVKGRFTISRDESKNTLYLQMNSLRAEDTAVYHCARGSSGHYEAFDIWGQGTLVTVSSGGGGSGGGGSGGGGSQSVLTQPPSASGTPGQRVTISCSGSSSNIGNWYVSWYQQLPGTAPKLLIYDNNKRPSGVPDRFSGSKSGTSASLAISGLQSEDEADYYCGTWDSSLSAPWVFGGGTKLTVLGAAAGAGGDYKDDDDKGAAAHHHHHH | 0.4
NYA-2035 (scFv) scFv: GEVQLVESGGGVVQPGRSLTPSCSASGFSIRSYDIHWVRLAPGKGLEWVATISYDGSQKYFADSVKGRFTIFRDESENMVYLQMSGLRVEDTAVYHCARGSSGHYEAFDIWGQGTMVTVSSGGGGSGGGGSGGGGSQSVLTQPPSVSAAPGQKVTISCSGSSSNIGNWKVSWYQQLPGTAPKLLIYDNNKRPSGIPDRFSGSKSGTSATLGITGLQTGDEADYYCGTWDSSLSAPWVFGGGTKVTVLGAAAGAGGDYKDDDDKGAAAHHHHHH | 0.38
NYA-0001 (scFv, also called NYA-0001 tag adduct; NY-R119 expressed in a cultured mammalian cell) scFv: GEVQLVESGGGVVQPGRSLTPSCSASGFSIRSYDIHWVRQAPGKGLEWVATISYDGSQKYFADSVKGRFTIFRDESENMVYLQMSGLRVEDTAVYHCARGSSGHYEAFDIWGQGTMVTVSSGGGGSGGGGSGGGGSQSVLTQPPSVSAAPGQKVTISCSGSSSNIGNNYVSWYQQLPGTAPKLLIYDNNKRPSGIPDRFSGSKSGTSATLGITGLQTGDEADYYCGTWDSSLSAPWVFGGGTKVTVLGAAAGAGGDYKDDDDKGAAAHHHHHH | 0.37
NYA-1154 (scFv) scFv: GEVQLVESGGGVVQPGRSLTPSCSASGFSIRSYDMHWVRQAPGKGLEWVATISYDGSQKYFADSVKGRFTIFRDESENMVYLQMSGLRVEDTAVYHCARGSSNHYEAFDIWGQGTMVTVSSGGGGSGGGGSGGGGSQSVLTQPPSVSAAPGQKVTISCSGSSSNIGNNYVSWYQRLPGTAPKLLIYDNNKRPSGIPDRFSGSKSGTSATLGITGLQTGDEADYYCGAWDSSLSAPWVFGGGTKVTVLGAAAGAGGDYKDDDDKGAAAHHHHHH | 0.46
NYA-2143 (scFv) scFv: GEVQLVESGGGVVQPGRSLTPSCSASGFSIRSYDIHWVRLAPGKGLEWVATISYDGSQKYFADSVKGRFTIFRDESENMVYLQMSGLRVEDTAVYHCARGSSGHYEAFDIWGQGTMVTVSSGGGGSGGGGSGGGGSQSVLTQPPSVSAAPGQKVTISCSGSSSNIGNWYVSWYQRLPGTAPKLLIYDNNKRPSGIPDRFSGSKSGTSATLGITGLQTGDEADYYCGTWDSSLSAPWVFGGGTKVTVLGAAAGAGGDYKDDDDKGAAAHHHHHH | 0.38
NYA-1143 (scFv) scFv: GEVQLVESGGGVVQPGRSLTPSCSASGFSIRSYDIHWVRLAPGKGLEWVATISYDGSQKYFADSVKGRFTIFRDESENMVYLQMSGLRVEDTAVYHCARGSSGHYEAFDIWGQGTMVTVSSGGGGSGGGGSGGGGSQSVLTQPPSVSAAPGQKVTISCSGSSSNIGNWYVSWYQQLPGTAPKLLIYDNNKRPSGIPDRFSGSKSGTSATLGITGLQTGDEADYYCGTWDSSLSAPWVFGGGTKVTVLGAAAGAGGDYKDDDDKGAAAHHHHHH | 0.37
NYA-1163 (scFv) scFv: GEVQLVESGGGVVQPGRSLTPSCSASGFSIRSYDIHWVRLAPGKGLEWVATISYDGSQKYFADSVKGRFTIFRDESENMVYLQMSGLRVEDTAVYHCARGSSGHYEAFDIWGQGTMVTVSSGGGGSGGGGSGGGGSQSVLTQPPSVSAAPGQKVTISCSGSSSNIGNNYVSWYQQLPGTAPKLLIYDNNKRPSGIPDRFSGSKSGTSATLGITGLQTGDEADYYCGTWDSSLSAPWVFGGGTKVTVLGAAAGAGGDYKDDDDKGAAAHHHHHH | 0.36
NYA-2044 (scFv, also called NYA-2044 tag adduct) scFv: GEVQLVESGGGLVQPGGSLRLSCAASGFSIRSYDIHWVRLAPGKGLEWVATISYDGSQKYYADSVKGRFTISRDESKNTLYLQMNSLRAEDTAVYHCARGSSGHYEAFDIWGQGTLVTVSSGGGGSGGGGSGGGGSQSVLTQPPSVSAAPGQKVTISCSGSSSNIGNWYVSWYQQLPGTAPKLLIYDNNKRPSGIPDRFSGSKSGTSATLGITGLQTGDEADYYCGTWDSSLSAPWVFGGGTKVTVLGAAAGAGGDYKDDDDKGAAAHHHHHH | 0.38

Need standardized gMFI, item NYA-2047 (scFv) scFv: GQVQLVESGGGVVQPGRSLRLSCAASGFSIRSYDMHWVRQAPGKGLEWVATISYDGSQKYYADSVKGRFTISRDNSKNTLYLQMSSLRAEDTAVYHCARGSSGHYEAFDIWGQGTLVTVSSGGGGSGGGGSGGGGSQSVLTQPPSVSAAPGQKVTISCSGSSSNIGNWYVSWYQQLPGTAPKLLIYDNNKRPSGIPDRFSGSKSGTSATLGITGLQTGDEADYYCGTWDSSLSAPWVFGGGTKVTVLGAAAGAGGDYKDDDDKGAAAHHHHHH
0.4
